# target-of-assay: Ba/F3-TPR-MET-D1228N cells (Homo sapiens, UniProt P08581, D1228N, cells depend on it)
# Construct: fused on or other part: P12270 (Nucleoprotein TPR)
# Sequence (P08581 whole entry D1228N, the tested form may be a part): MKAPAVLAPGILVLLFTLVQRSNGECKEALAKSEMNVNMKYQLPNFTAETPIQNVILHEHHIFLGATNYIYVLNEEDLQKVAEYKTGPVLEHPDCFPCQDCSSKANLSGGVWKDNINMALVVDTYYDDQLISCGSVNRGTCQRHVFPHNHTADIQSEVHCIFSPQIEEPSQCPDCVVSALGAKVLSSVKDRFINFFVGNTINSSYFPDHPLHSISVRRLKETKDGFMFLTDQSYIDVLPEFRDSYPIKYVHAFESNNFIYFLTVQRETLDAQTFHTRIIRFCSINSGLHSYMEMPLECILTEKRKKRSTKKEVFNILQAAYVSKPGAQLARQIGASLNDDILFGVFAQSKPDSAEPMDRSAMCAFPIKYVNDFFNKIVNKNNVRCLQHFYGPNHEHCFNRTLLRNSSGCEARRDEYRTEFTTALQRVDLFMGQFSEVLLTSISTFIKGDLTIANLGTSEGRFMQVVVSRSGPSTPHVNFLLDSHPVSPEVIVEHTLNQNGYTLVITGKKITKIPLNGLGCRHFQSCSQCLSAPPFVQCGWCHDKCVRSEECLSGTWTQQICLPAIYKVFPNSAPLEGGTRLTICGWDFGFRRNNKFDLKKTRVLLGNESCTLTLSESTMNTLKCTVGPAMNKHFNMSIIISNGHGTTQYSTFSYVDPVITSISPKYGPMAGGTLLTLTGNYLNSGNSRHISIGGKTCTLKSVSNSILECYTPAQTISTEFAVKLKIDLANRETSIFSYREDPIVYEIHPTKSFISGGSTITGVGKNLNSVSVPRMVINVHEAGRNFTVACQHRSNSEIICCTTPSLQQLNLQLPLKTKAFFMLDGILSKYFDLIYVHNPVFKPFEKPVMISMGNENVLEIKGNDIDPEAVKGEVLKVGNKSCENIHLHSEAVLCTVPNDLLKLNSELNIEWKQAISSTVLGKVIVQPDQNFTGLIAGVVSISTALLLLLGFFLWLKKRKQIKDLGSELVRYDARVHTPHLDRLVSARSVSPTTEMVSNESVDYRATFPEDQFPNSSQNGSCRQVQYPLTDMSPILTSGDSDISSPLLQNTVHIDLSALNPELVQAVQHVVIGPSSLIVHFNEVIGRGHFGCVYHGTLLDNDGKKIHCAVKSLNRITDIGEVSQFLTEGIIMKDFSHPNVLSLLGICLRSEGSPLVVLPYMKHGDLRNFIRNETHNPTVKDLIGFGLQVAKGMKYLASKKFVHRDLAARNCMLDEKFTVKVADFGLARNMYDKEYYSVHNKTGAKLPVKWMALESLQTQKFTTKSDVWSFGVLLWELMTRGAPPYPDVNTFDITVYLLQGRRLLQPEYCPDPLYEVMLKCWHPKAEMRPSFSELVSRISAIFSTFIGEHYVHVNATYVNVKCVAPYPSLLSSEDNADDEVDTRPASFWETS
# assay-notes: CellTiter-Glo Cell Viability Assay, Ba/F3-TPR-MET-D1228N
# condition-info: 72 hours
Entries and their measured EC50 follow.

| smiles-entry | EC50 |
| --- | --- |
| CNCCOc1cc2nccc(Oc3c(F)cc(NC(=O)c4ncccc4OC4CC4)cc3F)c2cc1OC | ≤ 100 nM |
| CNCCOc1cc2nccc(Oc3c(F)cc(NC(=O)c4cnc(F)cc4OC4CC4)cc3F)c2cc1OC | ≤ 100 nM |
| COC[C@H](C)Oc1cc2c(Oc3c(F)cc(NC(=O)c4cnccc4OC)cc3F)ccnc2cc1OC | ≤ 100 nM |

Challenge: Quick one: EC50 of CCOc1ccncc1C(=O)Nc1cc(F)c(Oc2ccnc3cc(OCCNC)c(OC)cc23)c(F)c1F ?
Response given: ≤ 100 nM

Challenge: Quick one: EC50 of CNCCOc1cc2nccc(Oc3c(F)cc(NC(=O)c4cnccc4OC)cc3Cl)c2cc1OC ?
Response given: 100 to 1000 nM

Attribution: patent US11753395B2
